Taken from patent US20250082630A1.

biological target: UniProtKB Q9Y6F1; assay: PARP fluorescence anisotropy binding assay, PARP3
measurement_type: pIC50
Interpret pIC50 as the negative base-10 log of the concentration measured in mol/L.

compound	system_tested	pIC50
CNC(=O)c1ccc(N2CCN(Cc3ccc4nc(C(C)F)c(=O)[nH]c4c3F)CC2)c(C)n1 (single isomer, unassigned) [Example 14]	UniProtKB Q9Y6F1	4.28

Which pIC50 is reported for this compound? CNC(=O)c1ccc(N2CCN(Cc3ccc4nc([C@H](C)F)c(=O)[nH]c4c3F)CC2)c(F)n1 (single isomer, unassigned) [Example 13]
4.21

---

test system: MDR1 and BCRP; experiment: In vitro human transporter efflux (MDCK-MDR1-BCRP); conditions: human, pH 7.4
measurement_type: efflux ratio at 90 min
Number only, no unit.

Worked examples follow.
compound	system_tested	efflux ratio at 90 min
CNC(=O)c1ccc(N2CCN(Cc3ccc4nc(C)c(=O)[nH]c4c3F)CC2)c(C)n1 [Example 31]	MDR1 and BCRP	1.6
CNC(=O)c1ccc(N2CCN(Cc3ccc4nc(C)c(=O)[nH]c4c3C)CC2)c(C)n1 [Example 4]	MDR1 and BCRP	0.8
CNC(=O)c1ccc(N2CCN(Cc3ccc4nc(OC)c(=O)[nH]c4c3F)CC2)c(F)n1 [Example 39]	MDR1 and BCRP	1.9
CNC(=O)c1ccc(N2CCN(Cc3ccc4nc(C)c(=O)[nH]c4c3C)CC2)c(F)n1 [Example 1]	MDR1 and BCRP	0.7
CNC(=O)c1ccc(N2CCN(Cc3ccc4nc(C(F)F)c(=O)[nH]c4c3F)CC2)c(C)n1 [Example 37]	MDR1 and BCRP	5
CNC(=O)c1ccc(N2CCN(Cc3ccc4nc(C)c(=O)[nH]c4c3F)CC2)c(C(F)F)n1 [Example 21]	MDR1 and BCRP	1.6
CCNC(=O)c1ccc(N2CCN(Cc3ccc4nc(C)c(=O)[nH]c4c3F)CC2)c(F)n1 [Example 45]	MDR1 and BCRP	1.5

Which efflux ratio at 90 min is reported for this compound? CCc1nc2ccc(CN3CCN(c4ccc(C(=O)NC)nc4Cl)CC3)c(F)c2[nH]c1=O [Example 28]
0.8

---

The following compounds have recorded IC50 on PARP3 (Homo sapiens (Human)).
Sequence (Q9Y6F1 whole entry): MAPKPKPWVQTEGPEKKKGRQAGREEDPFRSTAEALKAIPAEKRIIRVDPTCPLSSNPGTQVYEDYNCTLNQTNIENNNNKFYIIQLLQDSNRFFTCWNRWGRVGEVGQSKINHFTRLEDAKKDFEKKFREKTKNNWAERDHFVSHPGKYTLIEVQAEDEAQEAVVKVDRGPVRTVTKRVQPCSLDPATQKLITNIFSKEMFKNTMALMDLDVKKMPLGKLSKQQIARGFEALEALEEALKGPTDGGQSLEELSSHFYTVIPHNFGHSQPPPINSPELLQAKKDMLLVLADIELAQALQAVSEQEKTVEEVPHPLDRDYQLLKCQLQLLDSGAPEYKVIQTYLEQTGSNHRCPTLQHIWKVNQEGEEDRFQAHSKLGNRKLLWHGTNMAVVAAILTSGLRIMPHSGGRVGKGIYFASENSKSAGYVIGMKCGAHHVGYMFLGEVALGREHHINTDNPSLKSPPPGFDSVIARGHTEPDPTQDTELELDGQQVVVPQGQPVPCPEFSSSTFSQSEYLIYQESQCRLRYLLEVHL

compound	system_tested	IC50
CNC(=O)c1ccc(N2CCN(Cc3ccc4nc(C)c(=O)[nH]c4c3F)CC2)c(Cl)n1 [Example 30]	PARP3 (Homo sapiens (Human))	> 100 µM
CNC(=O)c1ccc(N2CCN(Cc3ccc4nc(C(C)F)c(=O)[nH]c4c3F)CC2)c(C)n1 (single isomer, unassigned) [Example 15]	PARP3 (Homo sapiens (Human))	43 µM
CNC(=O)c1ccc(N2CCN(Cc3ccc4nc([C@H](C)F)c(=O)[nH]c4c3F)CC2)c(F)n1 (single isomer, unassigned) [Example 12]	PARP3 (Homo sapiens (Human))	85 µM

Could you now look at the following compound, please?
Hi! What's the reported IC50 for CNC(=O)c1ccc(N2CCN(Cc3ccc4nc(OC)c(=O)[nH]c4c3F)CC2)cn1 [Example 38] on PARP3 (Homo sapiens (Human))?
> 100 µM

---

The following compounds have recorded log10 IC50 on PARP1 (Homo sapiens (Human), UniProt P09874).
Sequence (P09874 whole entry): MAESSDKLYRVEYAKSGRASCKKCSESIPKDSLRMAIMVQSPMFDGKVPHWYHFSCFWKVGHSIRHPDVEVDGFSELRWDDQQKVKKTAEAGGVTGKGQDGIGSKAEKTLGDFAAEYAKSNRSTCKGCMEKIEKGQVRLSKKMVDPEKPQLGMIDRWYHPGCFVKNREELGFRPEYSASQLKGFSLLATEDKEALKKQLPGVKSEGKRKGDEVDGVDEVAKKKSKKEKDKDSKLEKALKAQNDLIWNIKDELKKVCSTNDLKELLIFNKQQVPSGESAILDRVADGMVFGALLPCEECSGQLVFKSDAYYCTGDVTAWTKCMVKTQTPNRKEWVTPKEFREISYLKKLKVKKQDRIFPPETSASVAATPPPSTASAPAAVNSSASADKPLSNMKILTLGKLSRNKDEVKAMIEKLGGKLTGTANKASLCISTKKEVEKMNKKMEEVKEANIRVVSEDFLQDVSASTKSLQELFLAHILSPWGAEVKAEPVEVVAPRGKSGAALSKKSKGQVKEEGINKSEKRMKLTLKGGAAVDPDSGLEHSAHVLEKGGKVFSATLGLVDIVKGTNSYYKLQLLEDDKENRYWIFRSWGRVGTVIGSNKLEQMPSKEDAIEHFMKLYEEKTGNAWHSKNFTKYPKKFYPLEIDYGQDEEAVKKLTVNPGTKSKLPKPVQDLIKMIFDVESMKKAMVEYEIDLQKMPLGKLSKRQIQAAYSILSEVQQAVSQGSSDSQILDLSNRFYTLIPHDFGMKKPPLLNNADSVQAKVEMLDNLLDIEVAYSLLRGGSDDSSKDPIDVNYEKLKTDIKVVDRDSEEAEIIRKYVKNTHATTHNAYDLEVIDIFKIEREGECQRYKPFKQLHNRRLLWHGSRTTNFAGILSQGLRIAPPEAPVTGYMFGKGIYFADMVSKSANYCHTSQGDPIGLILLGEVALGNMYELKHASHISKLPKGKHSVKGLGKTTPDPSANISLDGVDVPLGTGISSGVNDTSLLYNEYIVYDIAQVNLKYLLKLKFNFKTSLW
Values below are the log10 of the recorded IC50, with nM as the unit.

Worked examples follow.
compound	log10 IC50
CNC(=O)c1ccc(N2CCN(Cc3ccc4ncc(=O)[nH]c4c3F)CC2)c(Cl)n1	1.41
Cc1nc2ccc(CN3CCN(c4ccc(C(N)=O)nc4F)CC3)c(F)c2[nH]c1=O	0.78
CNC(=O)c1ccc(N2CCN(Cc3ccc4nc(OC)c(=O)[nH]c4c3F)CC2)cn1	1.08
CCNC(=O)c1ccc(N2CCN(Cc3ccc4nc(C)c(=O)[nH]c4c3F)CC2)c(F)n1	0.78
CNC(=O)c1ccc(N2CCN(Cc3ccc4nc(C(C)F)c(=O)[nH]c4c3F)CC2)c(C)n1 (single isomer, unassigned) [Example 15]	1.08

Which log10 IC50 is reported for this compound? CNC(=O)c1ccc(N2CCN(Cc3ccc4nc(C(C)F)c(=O)[nH]c4c3F)CC2)c(C)n1 (single isomer, unassigned) [Example 14]
1.11

Which log10 IC50 is reported for this compound? "CNC(=O)c1ccc(N2CCN(Cc3ccc4nc(OC)c(=O)[nH]c4c3C)CC2)c(C)n1"
1.04

Which log10 IC50 is reported for this compound? "CCc1nc2ccc(CN3CCN(c4ccc(C(=O)NC)nc4Cl)CC3)c(Cl)c2[nH]c1=O"
0.60

Which log10 IC50 is reported for this compound? "CNC(=O)c1ccc(N2CCN(Cc3ccc4nc(C)c(=O)[nH]c4c3Cl)CC2)c(F)n1"
0.78

Which log10 IC50 is reported for this compound? "CNC(=O)c1ccc(N2CCN(Cc3ccc4nc(C(F)(F)F)c(=O)[nH]c4c3F)CC2)c(F)n1"
1.59

Which log10 IC50 is reported for this compound? "CNC(=O)c1ccc(N2CCN(Cc3ccc4nc(C)c(=O)[nH]c4c3F)CC2)cn1"
0.85

Which log10 IC50 is reported for this compound? "CNC(=O)c1ccc(N2CCN(Cc3ccc4nc(C)c(=O)[nH]c4c3C)CC2)c(C)n1"
0.70

Which log10 IC50 is reported for this compound? "CCc1nc2ccc(CN3CCN(c4ccc(C(=O)NC)nc4C)CC3)c(Cl)c2[nH]c1=O"
0.48

Which log10 IC50 is reported for this compound? "CCNC(=O)c1ccc(N2CCN(Cc3ccc4nc(C)c(=O)[nH]c4c3F)CC2)c(C)n1"
1.00

Which log10 IC50 is reported for this compound? "CNC(=O)c1ccc(N2CCN(Cc3ccc4nc(C(F)(F)F)c(=O)[nH]c4c3F)CC2)cn1"
1.78

Which log10 IC50 is reported for this compound? "Cc1nc(C(N)=O)ccc1N1CCN(Cc2ccc3nc(C)c(=O)[nH]c3c2F)CC1"
0.60
